Data provenance is patent US11046686B2.

Listing of recorded EC50 by entry.
Test system: TNFα
Experiment: IRAK4 Monocyte TNFα Cell Based Assay
Set-up: species or system human
Conditions: Homo sapiens, Monocyte, human monocytes, LPS stimulated; compounds 1-32; read-out: EC50 TNF
Procedure: IRAK4 Monocyte TNFα Cell Based Assay Procedure: The cell suspension was then plated at a density of 5,000 cells/well onto black 384 well Greiner clear bottom plates. […] Cells were then spun out of the media and 5 μl of sample were taken and analyzed for total TNFα content using the TR-FRET Human TNFα detection system (CisBio). […]
Provide only the numeric value, understood in nM.

Here's what some known entries look like.
SMILES: CC(=O)N[C@H]1CC[C@H](c2nnc(-c3cnc(-c4ccc5cc(C#N)cnn45)cc3NC3(C)COC3)s2)CC1
EC50 / nM: 15
//
SMILES: CC(C)Nc1cc(-c2ccc3cc(C#N)cnn23)ncc1-c1nnc(NC[C@@H](F)C(C)(C)O)s1
EC50 / nM: 67
//
SMILES: CC(=O)Nc1nnc(-c2cnc(-c3ccc4cc(C#N)cnn34)cc2NC(C)C)s1
EC50 / nM: 5870
//
SMILES: CC(C)Nc1cc(-c2ccc3cc(C#N)cnn23)ncc1-c1nnc(C(=O)NC[C@@H](F)C(C)(C)O)s1
EC50 / nM: 79
//
SMILES: CNC(=O)c1nnc(-c2cnc(-c3ccc4cc(C#N)cnn34)cc2NC(C)C)s1
EC50 / nM: 3390
//
SMILES: CC(C)Nc1cc(-c2ccc3cc(C#N)cnn23)ncc1-c1nnc(CCNC(=O)OC(C)(C)C)s1
EC50 / nM: 309
//
SMILES: CC(C)Nc1cc(-c2ccc3cc(C#N)cnn23)ncc1-c1nnc(CO)s1
EC50 / nM: 76

Now look at this entry.
input: Short answer please: EC50, TNFα, entry "CC(C)Nc1cc(-c2ccc3cc(C#N)cnn23)ncc1-c1nncs1"
output: 78

====

system: TNFα; experiment: IRAK4 Monocyte TNFα Cell Based Assay; parameters: species or system human; details: Homo sapiens, Monocyte, read-out: EC50 MONO TNF HTRF
pEC50: −log10 of the molar value.
Think of 8 as a floor: if pEC50 stands on it or above, it is 1 (yes); beneath it, 0 (no).

SMILES: CN1CCC(C(=O)N2C3CC2CN(c2nnc(-c4cnc(-c5ccc6cc(C#N)cnn56)cc4NC4(C)COC4)s2)C3)CC1
CLASS_ASSIGNMENT: 0 (no)
//
SMILES: CC(C)Nc1cc(-c2ccc3cc(C#N)cnn23)ncc1-c1nnc(N2CC3CC(C2)N3C(=O)C(C)(C)O)s1
CLASS_ASSIGNMENT: 1 (yes)
//
SMILES: CC(C)Nc1cc(-c2ccc3cc(C#N)cnn23)ncc1-c1nnc(N2CC3CC(C2)N3C(=O)OC(C)(C)C)s1
CLASS_ASSIGNMENT: 0 (no)
//
SMILES: CN1CCN(C(=O)N2C3CC2CN(c2nnc(-c4cnc(-c5ccc6cc(C#N)cnn56)cc4NC4(C)COC4)s2)C3)CC1
CLASS_ASSIGNMENT: 0 (no)
//
SMILES: CC(C)Nc1cc(-c2ccc3cc(C#N)cnn23)ncc1-c1nnc(N2C3CCC2COC3)s1
CLASS_ASSIGNMENT: 0 (no)

input: Exam item: decide whether the reported pEC50 for "CC(=O)N[C@@H]1C[C@@H]2CC[C@H]1N2c1nnc(-c2cnc(-c3ccc4cc(C#N)cnn34)cc2NC(C)C)s1" is at least 8.
output: 0 (no)

input: Exam item: decide whether the reported pEC50 for "CC(=O)N1C2CCC1CN(c1nnc(-c3cnc(-c4ccc5cc(C#N)cnn45)cc3NC(C)C)s1)C2" is at least 8.
output: 1 (yes)

input: Exam item: decide whether the reported pEC50 for "C[C@H](C#N)Nc1cc(-c2ccc3cc(C#N)cnn23)ncc1-c1nnc(N2CC3CC(C2)O3)s1" is at least 8.
output: 1 (yes)

input: Exam item: decide whether the reported pEC50 for "CC(C)Nc1cc(-c2ccc3cc(C#N)cnn23)ncc1-c1nnc(N2C3CNCC2C3)s1" is at least 8.
output: 0 (no)
